- System: RAW264.7
- measurement_notes: Antiinflammatory activity against LPS-stimulated mouse RAW264.7 cells assessed as inhibition of TNFalpha accumulation at 10 uM pretreated for 2 hrs before LPS challenge after 22 hrs by ELISA relative to control
- Assay type: functional
The source made the active and inactive calls. The rule behind the calls is not given here.
Outcomes: active, inactive

[
  {
    "molecule_smiles": "Cc1ccc(/C=C/C(=O)/C=C/c2ccc(C)cc2C)c(C)c1",
    "category": "active"
  },
  {
    "molecule_smiles": "O=C(/C=C/c1c(F)cccc1F)/C=C/c1c(F)cccc1F",
    "category": "active"
  },
  {
    "molecule_smiles": "O=C1/C(=C/c2cccc(Cl)c2Cl)CC/C1=C\\c1cccc(Cl)c1Cl",
    "category": "inactive"
  },
  {
    "molecule_smiles": "COc1ccc(/C=C2\\CCC/C(=C\\c3ccc(OC)cc3OC)C2=O)c(OC)c1",
    "category": "inactive"
  },
  {
    "molecule_smiles": "O=C(/C=C/c1cc(F)ccc1F)/C=C/c1cc(F)ccc1F",
    "category": "inactive"
  },
  {
    "molecule_smiles": "O=C1/C(=C\\c2ccccc2C(=O)O)CCC/C1=C\\c1ccccc1C(=O)O",
    "category": "inactive"
  },
  {
    "molecule_smiles": "COc1cc(OC)c(/C=C2\\CC/C(=C\\c3c(OC)cc(OC)cc3OC)C2=O)c(OC)c1",
    "category": "inactive"
  },
  {
    "molecule_smiles": "O=C1/C(=C/c2c(F)cccc2F)CCC/C1=C\\c1c(F)cccc1F",
    "category": "inactive"
  },
  {
    "molecule_smiles": "Cc1ccc(/C=C2\\CCC/C(=C\\c3ccc(C)cc3C)C2=O)c(C)c1",
    "category": "inactive"
  }
]
